Values compiled from ChEMBL document CHEMBL1201862.

- Tested on: HL-60
- assay protocol: NCI tumour cell line growth inhibition, 48 h
The source made the active and inactive calls. No stated cut-off is given here; in the data, active = GI50 up to about 1.1 µM and inactive = higher.
Classes used: active, inactive

INSERT INTO assay_data (compound, label) VALUES
  ('O=C(CC(=O)Nc1ccccc1)NNC(Sc1ccccc1)c1cc(/N=N/c2ccc(Br)cc2)ccc1O (stereo not drawn)', 'active'),
  ('O=C(NC(Nc1ccc(F)c(Cl)c1)(C(F)(F)F)C(F)(F)F)OCc1ccccc1', 'inactive'),
  ('O=C1/C(=C/c2ccccc2O)N=C(c2ccccc2)N1C1Nc2cc3c(cc2S1)NC(N1C(=O)/C(=C/c2ccccc2O)N=C1c1ccccc1)S3 (stereo not drawn)', 'inactive'),
  ('Cc1ccc(S(=O)(=O)NC(=O)NC(CO)C(=O)O)cc1 (stereo not drawn)', 'inactive'),
  ('O=C(NC(Cc1ccc(I)cc1)C(=O)O)c1ccc(Br)cc1 (stereo not drawn)', 'inactive'),
  ('Cc1ccc2nc3c(C)cc(=O)cc-3sc2c1', 'inactive'),
  ('CC1OC(OC2C(OC(=O)[C@@H]3CC(C)(C)C[C@@H]4C5=CC[C@@H]6[C@@]7(C)C[C@H](O)[C@H](OC8OC(CO)C(O)C(O)C8O)[C@@](C)(CO)C7[C@H](O)C[C@@]6(C)[C@]5(C)C[C@@H](O)[C@H]43)OCC(O)C2O)C(O)C(O)C1O (stereo partly drawn)', 'inactive'),
  ('O=C1CNS(=O)(=O)N1', 'inactive');

====

GI50 values for the molecules below.
- Test system: Hs-578T
- assay protocol: NCI tumour cell line growth inhibition, 48 h
Activity calls are given as the source filed them. Cut-off read from the data, not from the text of the source: active = GI50 up to about 1.1 µM and inactive = higher.
outcome measure: GI50

INSERT INTO results (molecule, data_value) VALUES
  ('COc1ccccc1N1C(=O)CS(=O)(=O)C1c1cccc(Oc2ccccc2)c1 (stereo not given)', '19.1 µM (inactive)'),
  ('Cc1ccc(N(C(=O)Nc2ccc(F)c(Cl)c2)C2=NCC(C)S2)cc1 (stereo not given)', '> 100 µM (inactive)'),
  ('O=C(CC1(O)CCCCC1)OC1CCCC1', '> 100 µM (inactive)'),
  ('CC(C)C(CC(=O)OCC(CO)OC(=O)CC(C(C)C)C(C)C)C(C)C (stereo not given)', '4.85 µM (inactive)'),
  ('CC(C)(C)c1ccc(C(O)(c2ccc(C(C)(C)C)cc2)c2ccc(C(C)(C)C)cc2)cc1', '70.5 µM (inactive)'),
  ('O=C1/C(=C\c2ccccc2)C(NC2CCCCC2)c2ccccc21 (stereo not given)', '3.18 µM (inactive)'),
  ('CN(C)C(=C1c2cc([N+](=O)[O-])ccc2-c2ccc([N+](=O)[O-])cc21)N(C)C', '> 100 µM (inactive)'),
  ('COc1ccc(-c2c3ccccc3c(-c3ccc(OCCBr)cc3)c3ccccc23)cc1', '> 100 µM (inactive)'),
  ('CC1(C)C(c2ccccc2)=[N+]([O-])C(C)(C)N1O', '> 10 µM (inactive)'),
  ('Cc1c(C#N)c2nc3ccccc3n2c(=O)/c1=C/Nc1ccc(Cl)cc1', '10.8 µM (inactive)');

====

- Test system: LOX IMVI
- assay protocol: NCI tumour cell line growth inhibition, 48 h
Calls of active or inactive are those of the source. No stated cut-off is given here; in the data, active = GI50 up to about 1.1 µM and inactive = higher.
outcome measure: GI50

INSERT INTO results (compound, data_value) VALUES
  ('O=c1c(-c2ccccc2)c(SCCN2CCCCCC2)n(-c2ccccc2)c(=S)n1-c1ccccc1', '50.7 µM (inactive)'),
  ('COc1cccc(Nc2nc(N)nc(N)c2N)c1', '21.4 µM (inactive)'),
  ('O=c1n(CCCN2CCOCC2)nc2n1-c1ccc3ccccc3c1SC2', '26.9 µM (inactive)'),
  ('OC1(c2ccccc2)OC(C#Cc2ccccc2)(c2ccccc2)c2ccccc21 (centres undefined)', '2.91 µM (inactive)');
